Molecular target: T1, GapR (Caulobacter crescentus, UniProt B8H4R9 1-89)
T1 sequence: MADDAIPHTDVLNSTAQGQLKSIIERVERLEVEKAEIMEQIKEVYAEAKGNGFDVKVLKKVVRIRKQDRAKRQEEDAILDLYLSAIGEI
Assay: ITC; netropsin-bound DNA; ITC: 50 mM sodium phosphate pH 7.0, 200 mM NaCl, 4 C; 25 uM GapR tetramer in cell, 0.25 mM DNA injected; NMR: 0.1 mM tetramer, 0.02-0.1 mM DNA
Conditions: protein: recombinant; tags: C-terminal His6 (pET-21a); chain copies: 4; blunt
PROPERTY_MEASURED: Kd (nM)
Write the value in nM as a bare number.

Quick one: Kd for 5ApT (dsDNA) DNA 1: CCGATATATATATCGC DNA 2: GCGATATATATATCGG ?
16.6
